IC50 reference
# MEASUREMENT TARGET: 5-HT2C (Homo sapiens, UniProt P28335, I156V/I160V/N158S)
# Sequence (P28335 33-458 I156V/N158S/I160V limits assumed): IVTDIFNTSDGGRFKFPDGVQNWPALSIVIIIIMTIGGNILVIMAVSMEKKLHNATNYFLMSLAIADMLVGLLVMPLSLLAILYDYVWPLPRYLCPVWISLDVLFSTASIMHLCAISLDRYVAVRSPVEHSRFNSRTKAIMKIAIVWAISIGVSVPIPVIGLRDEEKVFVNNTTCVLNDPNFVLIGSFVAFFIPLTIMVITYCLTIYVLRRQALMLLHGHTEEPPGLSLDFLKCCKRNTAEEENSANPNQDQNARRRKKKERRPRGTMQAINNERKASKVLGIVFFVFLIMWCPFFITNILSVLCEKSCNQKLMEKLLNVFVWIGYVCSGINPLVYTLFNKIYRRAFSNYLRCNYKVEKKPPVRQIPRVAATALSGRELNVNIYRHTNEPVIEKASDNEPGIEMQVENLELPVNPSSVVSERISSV
# ASSAY NOTES: cell-based

Examples with answers:
INSERT INTO results (molecule, measurement_target, property_label, result_value) VALUES
  ('CN1CCc2[nH]c3c(OCc4ccccc4)cccc3c2CC1 [Compound 28]', '5-HT2C (Homo sapiens, UniProt P28335, I156V/I160V/N158S)', 'IC50', '0.101 to 1 µM'),
  ('CN1CCc2[nH]c3ccc(OCc4ccccc4)cc3c2CC1 [Compound 26]', '5-HT2C (Homo sapiens, UniProt P28335, I156V/I160V/N158S)', 'IC50', '0.101 to 1 µM'),
  ('CN1CCc2c(n(C)c3cc(Oc4ccccc4)ccc23)CC1 [Compound 14]', '5-HT2C (Homo sapiens, UniProt P28335, I156V/I160V/N158S)', 'IC50', '> 10 µM'),
  ('CN1CCc2[nH]c3cccc(Oc4ccc(F)cc4)c3c2CC1 [Compound 22]', '5-HT2C (Homo sapiens, UniProt P28335, I156V/I160V/N158S)', 'IC50', '> 10 µM'),
  ('Fc1ccc(COc2ccc3c4c([nH]c3c2)CCNCC4)cc1 [Compound 7]', '5-HT2C (Homo sapiens, UniProt P28335, I156V/I160V/N158S)', 'IC50', '> 10 µM');

Now let's try a different one.
input: Any idea what its IC50 is? The molecule is Cn1c2c(c3ccc(OCc4ccccc4)cc31)CCNCC2 [Compound 5]
output: > 10 µM
